# assay_remarks: Half life in simulated gastric fluid at 20 uM by LC-MS/MS analysis
# Format: ADME
readout_type: half-life at 20 µM

[[record]]
compound_smiles = "CC(=O)NCCCC[C@H](NC(=O)[C@](C)(CCCCNC(C)=O)NC(=O)[C@H](Cc1ccc2ccccc2c1)NC(=O)[C@H](Cc1ccc(OCCNC(C)=O)cc1)NC(=O)[C@@H](NC(=O)[C@H](CCC(N)=O)NC(=O)[C@H](Cc1c[nH]c2ccccc12)NC(=O)[C@@H](NC(=O)[C@H](CCC(N)=O)NC(=O)[C@@H](NC(C)=O)C(C)(C)S)[C@@H](C)O)C(C)(C)S)C(=O)N[C@@H](CC(N)=O)C(=O)N[C@@H](CC(N)=O)C(N)=O"
meas_value = "> 6 h"

[[record]]
compound_smiles = "CC(=O)NCCOc1ccc(C[C@H](NC(=O)[C@@H](NC(=O)[C@H](CCC(N)=O)NC(=O)[C@H](Cc2c[nH]c3ccccc23)NC(=O)[C@@H](NC(=O)[C@H](CCC(N)=O)NC(=O)[C@@H](NC(C)=O)C(C)(C)S)[C@@H](C)O)C(C)(C)S)C(=O)N[C@@H](Cc2ccc3ccccc3c2)C(=O)N[C@@](C)(CC(C)C)C(=O)N[C@@H](CCC(N)=O)C(=O)N[C@@H](CC(N)=O)C(=O)N[C@@H](CC(N)=O)C(N)=O)cc1"
meas_value = "> 6 h"

[[record]]
compound_smiles = "CC(=O)NCCCC[C@H](NC(=O)[C@](C)(CCCCN)NC(=O)[C@H](Cc1ccc2ccccc2c1)NC(=O)[C@H](Cc1ccc(OCCN)cc1)NC(=O)[C@@H]1CSCC[C@H](NC(=O)CCC(=O)O)C(=O)N[C@@H](CCC(N)=O)C(=O)N[C@@H]([C@@H](C)O)C(=O)N[C@@H](Cc2c[nH]c3ccccc23)C(=O)N[C@@H](CCC(N)=O)C(=O)N1)C(=O)N[C@@H](CC(N)=O)C(=O)NCC(N)=O"
meas_value = "3 to 6 h"

[[record]]
compound_smiles = "CC(=O)NCCCC[C@H](NC(=O)C(C)(C)NC(=O)[C@H](Cc1ccc2ccccc2c1)NC(=O)[C@H](Cc1ccc(OCCN)cc1)NC(=O)[C@@H]1CSCC[C@H](NC(C)=O)C(=O)N[C@@H](CCC(N)=O)C(=O)N[C@@H]([C@@H](C)O)C(=O)N[C@@H](Cc2c[nH]c3ccccc23)C(=O)N[C@@H](CCC(N)=O)C(=O)N1)C(=O)N[C@@H](CC(N)=O)C(=O)NCC(N)=O"
meas_value = "1 to 2 h"

[[record]]
compound_smiles = "CC(=O)NCCCC[C@H](NC(=O)[C@](C)(CCCCN)NC(=O)[C@H](Cc1ccc2ccccc2c1)NC(=O)[C@H](Cc1ccc(OCCN)cc1)NC(=O)[C@@H](NC(=O)[C@H](CCC(N)=O)NC(=O)[C@H](Cc1c[nH]c2ccccc12)NC(=O)[C@@H](NC(=O)[C@H](CCC(N)=O)NC(=O)[C@@H](NC(C)=O)C(C)(C)S)[C@@H](C)O)C(C)(C)S)C(=O)N[C@@H](CC(N)=O)C(=O)N[C@@H](CC(N)=O)C(N)=O"
meas_value = "> 6 h"


----------
# measured_on: Interleukin-23 receptor (Homo sapiens, UniProt Q5VWK5)
# Sequence (Q5VWK5 whole entry): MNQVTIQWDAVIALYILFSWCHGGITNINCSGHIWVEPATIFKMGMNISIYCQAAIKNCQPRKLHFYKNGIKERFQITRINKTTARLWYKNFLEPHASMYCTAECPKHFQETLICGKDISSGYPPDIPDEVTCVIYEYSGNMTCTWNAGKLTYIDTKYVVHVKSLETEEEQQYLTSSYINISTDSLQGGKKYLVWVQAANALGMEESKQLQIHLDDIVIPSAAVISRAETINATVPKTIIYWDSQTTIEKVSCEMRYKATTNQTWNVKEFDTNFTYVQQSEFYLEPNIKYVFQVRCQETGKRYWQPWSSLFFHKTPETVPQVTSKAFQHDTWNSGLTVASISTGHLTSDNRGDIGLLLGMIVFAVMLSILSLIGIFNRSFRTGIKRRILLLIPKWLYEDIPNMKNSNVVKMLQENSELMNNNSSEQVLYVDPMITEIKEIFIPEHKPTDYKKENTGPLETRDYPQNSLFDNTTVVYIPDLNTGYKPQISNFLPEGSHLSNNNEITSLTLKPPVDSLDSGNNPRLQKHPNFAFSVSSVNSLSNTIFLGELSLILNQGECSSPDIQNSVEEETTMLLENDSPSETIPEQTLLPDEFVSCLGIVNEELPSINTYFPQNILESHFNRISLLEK
# assay_remarks: Inhibition of interleukin-23 receptor in human DB cells assessed as reduction in IL-23-stimulated STAT3 phosphorylation incubated for 30 mins by HTRF assay
# Assay type: cell-based
pIC50: −log10 of the molar value.
readout_type: pIC50

[[record]]
compound_smiles = "CC[C@](C)(NC(=O)[C@H](Cc1ccc2ccccc2c1)NC(=O)[C@H](Cc1ccc(OCCN)cc1)NC(=O)[C@@H]1CSCC[C@H](NC(C)=O)C(=O)N[C@@H](CCC(N)=O)C(=O)N[C@@H]([C@@H](C)O)C(=O)N[C@@H](Cc2c[nH]c3ccccc23)C(=O)N[C@@H](CCC(N)=O)C(=O)N1)C(=O)N[C@@H](CCCCNC(C)=O)C(=O)N[C@@H](CC(N)=O)C(=O)NCC(N)=O"
readout_type = "pIC50"
meas_value = "> 8.00"

[[record]]
compound_smiles = "COc1ccc(C[C@H](NC(=O)[C@@H](NC(=O)[C@H](CCC(N)=O)NC(=O)[C@H](Cc2c[nH]c3ccccc23)NC(=O)[C@@H](NC(=O)[C@H](CCC(N)=O)NC(=O)[C@@H](NC(C)=O)C(C)(C)S)[C@@H](C)O)C(C)(C)S)C(=O)N[C@@H](Cc2ccc3ccccc3c2)C(=O)NC(C)(C)C(=O)N[C@@H](CCC(=O)O)C(=O)N[C@@H](CC(N)=O)C(=O)N[C@@H](CC(N)=O)C(N)=O)cc1"
readout_type = "pIC50"
meas_value = "> 8.00"


----------
# measured_on: Interleukin-23 receptor (Homo sapiens)
# Sequence (Q5VWK5 whole entry): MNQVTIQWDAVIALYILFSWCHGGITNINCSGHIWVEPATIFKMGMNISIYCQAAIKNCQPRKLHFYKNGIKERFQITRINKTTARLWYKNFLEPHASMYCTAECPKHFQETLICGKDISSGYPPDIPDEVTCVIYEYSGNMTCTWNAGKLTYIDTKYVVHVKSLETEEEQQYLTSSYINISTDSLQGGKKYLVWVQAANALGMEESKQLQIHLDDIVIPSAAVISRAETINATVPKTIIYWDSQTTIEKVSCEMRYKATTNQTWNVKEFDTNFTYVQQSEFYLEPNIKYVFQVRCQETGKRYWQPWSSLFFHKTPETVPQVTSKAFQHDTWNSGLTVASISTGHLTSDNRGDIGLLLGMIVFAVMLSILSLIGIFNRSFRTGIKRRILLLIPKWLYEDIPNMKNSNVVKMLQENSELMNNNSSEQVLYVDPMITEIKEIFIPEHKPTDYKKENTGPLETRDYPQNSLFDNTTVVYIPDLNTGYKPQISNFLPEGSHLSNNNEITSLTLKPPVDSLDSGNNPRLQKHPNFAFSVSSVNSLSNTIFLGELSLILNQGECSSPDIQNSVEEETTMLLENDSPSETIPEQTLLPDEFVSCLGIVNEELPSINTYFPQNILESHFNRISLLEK
# assay_remarks: Inhibition of interleukin-23 binding to human interleukin-23 receptor incubated for 2 hrs by competitive binding ELISA
Where a SMILES comes first, the peptide text is derived from it.
readout_type: IC50

[[record]]
compound = "CC(=O)N[C@@H](CS)C(=O)N[C@@H](C)C(=O)N[C@@H](CC(=O)O)C(=O)N[C@@H](Cc1c[nH]c2ccccc12)C(=O)N[C@H](C(=O)N[C@@H](CS)C(=O)N[C@@H](Cc1ccc(O)cc1)C(=O)N[C@@H](Cc1c[nH]c2ccccc12)C(=O)N[C@@H](Cc1cnc[nH]1)C(=O)N[C@H](C(=O)N[C@@H](Cc1cnc[nH]1)C(=O)NCC(=O)N[C@@H](CCC(=O)O)C(=O)N[C@@H](CCCNC(=N)N)C(N)=O)[C@@H](C)O)C(C)C"
measured_on = "Interleukin-23 receptor (Homo sapiens)"
readout_type = "IC50"
meas_value = "< 500 nM"

[[record]]
compound = "CC(=O)N[C@@H](CS)C(=O)N[C@@H](CCCNC(=N)N)C(=O)N[C@H](C(=O)N[C@@H](Cc1c[nH]c2ccccc12)C(=O)N[C@@H](CCC(=O)O)C(=O)N[C@@H](CS)C(=O)N[C@@H](Cc1ccc(O)cc1)C(=O)N[C@@H](Cc1c[nH]c2ccccc12)C(=O)N[C@@H](Cc1cnc[nH]1)C(=O)N[C@@H](CCC(=O)O)C(=O)N[C@@H](Cc1ccc(O)cc1)C(=O)NCC(N)=O)[C@@H](C)O (Ac-CRTWECYWHEYG-NH2)"
measured_on = "Interleukin-23 receptor (Homo sapiens)"
readout_type = "IC50"
meas_value = "< 500 nM"

[[record]]
compound = "CC(=O)NCCCC[C@H](NC(=O)[C@](C)(CO)NC(=O)[C@H](Cc1ccc2ccccc2c1)NC(=O)[C@H](Cc1ccc(OCCN)cc1)NC(=O)[C@@H]1CSCC[C@H](NC(C)=O)C(=O)N[C@@H](CCC(N)=O)C(=O)N[C@@H]([C@@H](C)O)C(=O)N[C@@H](Cc2c[nH]c3ccccc23)C(=O)N[C@@H](CCC(N)=O)C(=O)N1)C(=O)N[C@@H](CC(N)=O)C(=O)NCC(N)=O"
measured_on = "Interleukin-23 receptor (Homo sapiens)"
readout_type = "IC50"
meas_value = "< 10 nM"

